Would you mind telling me the reported IC50 of each entry?
Target: Mpc1 (Mpc1/Mpc3 hetero-dimer, mitochondrial pyruvate carrier) (Saccharomyces cerevisiae, UniProt P53157+P53311)
Construct: Mpc1/Mpc3 hetero-complex, untagged Mpc1 co-expressed with C-terminally tagged Mpc3, reconstituted in liposomes; with Mpc3 (P53311)
Sequence (P53157 whole entry): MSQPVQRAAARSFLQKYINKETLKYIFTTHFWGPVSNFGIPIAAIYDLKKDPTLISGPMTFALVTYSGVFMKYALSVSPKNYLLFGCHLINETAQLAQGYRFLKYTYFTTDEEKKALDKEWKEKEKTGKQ
Sequence (P53311 21-146): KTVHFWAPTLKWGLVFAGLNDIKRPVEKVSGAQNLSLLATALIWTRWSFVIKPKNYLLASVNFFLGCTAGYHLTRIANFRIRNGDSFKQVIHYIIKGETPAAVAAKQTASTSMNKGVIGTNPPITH
Assay: […]-pyruvate homo-exchange inhibition in proteoliposomes
Assay type: biochemical
Settings: read-out: IC50
One number for each entry, in µM.

N#C/C(=C\c1cn(-c2ccccc2)c2ccccc12)C(=O)O :: 9

// IC50 value for CN(Cc1ccccc1)c1ccc2cc(C(=O)O)c(=O)oc2c1 : 27

Entry source: paper PMC6517818
